This collection of values is drawn from the supplement of paper PMC12669032.

System: Bacteroides stercoris
TEST DETAILS: growth AUC relative to DMSO control (median of replicates) (fraction); higher = more growth (less inhibition), active = hit call of the paper
SETTINGS: 20 µM; 24 h
ATTRIBUTE MEASURED: growth AUC

Reference set, count: 3
| COMPOUND | REPORTED MEASUREMENT |
| --- | --- |
| O=C(NC(=O)c1c(F)cccc1F)Nc1ccc(Cl)c(Oc2ncc(C(F)(F)F)cc2Cl)c1 | 0.98 (inactive) |
| O=NN(CCO)CCO | 1.18 (inactive) |
| C[C@@H](Oc1ccc(Oc2nc3ccc(Cl)cc3o2)cc1)C(=O)O | 1.09 (inactive) |

Next, consider the following compound.
input: State growth AUC on Bacteroides stercoris. Entry: CCOc1cc(C(C)(C)C)ccc1C1COC(c2c(F)cccc2F)=N1 (centres undefined)
output: 1.23 (inactive)
